Biological target: T1, cynomolgus monkey SIRPα expressed on ExpiCHO-S cells (cynomolgus monkey, UniProt A0A2K5VYQ9 31-507)
T1 construct: whole, on cells; also called cySIRPα; ExpiCHO-S (cySIRPα)
T1 sequence: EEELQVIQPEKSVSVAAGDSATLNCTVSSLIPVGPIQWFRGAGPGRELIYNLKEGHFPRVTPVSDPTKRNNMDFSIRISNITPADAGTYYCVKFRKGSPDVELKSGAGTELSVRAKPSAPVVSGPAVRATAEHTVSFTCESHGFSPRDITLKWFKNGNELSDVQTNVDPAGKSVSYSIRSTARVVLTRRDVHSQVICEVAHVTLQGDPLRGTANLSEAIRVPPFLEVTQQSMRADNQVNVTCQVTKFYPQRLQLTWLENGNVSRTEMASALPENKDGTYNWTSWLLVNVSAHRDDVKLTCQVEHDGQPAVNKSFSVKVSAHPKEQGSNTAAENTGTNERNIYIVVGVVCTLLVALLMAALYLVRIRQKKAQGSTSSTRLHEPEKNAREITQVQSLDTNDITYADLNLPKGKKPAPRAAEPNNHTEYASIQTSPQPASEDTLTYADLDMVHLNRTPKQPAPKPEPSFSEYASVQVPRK
Assay: flow cytometry, ExpiCHO-S cells
readoutKind: EC50 (µg/mL)
Number in µg/mL, nothing else.

binder	u	EC50
humanized anti-SIRPα antibody 8 (antibody, human IgG1, kappa, L234A L235A, V domains shown, human IgG1 LALA, kappa; also called mAb 8) VH: RQLVESGGGLVQPGGSLRLSCAASGFSLSSHGISWVRQAPGKGLEYIGTIGTGVITYYASWAKGRFTGSKTSSTAYLQMTSLRAEDTAVYYCARGSAWNDPFDYWGQGTLVTVSS VL: DIVMTQSPSSLSASVGDRVTITCQASQSVYGNNDLAWYQQKPGQAPKLLIYLASTLATGVPSRFSGSGSGTDFTLTISSLQPEDFATYYCLGGGDDEADNTFGQGTKVEIKR	µg/mL	2.44

Proceeding to the next binder to report its EC50.
Problem: Give the measured EC50 for humanized anti-SIRPα antibody 6 (antibody, human IgG1, kappa, L234A L235A, V domains shown, human IgG1 LALA, kappa; also called mAb 6) VH: RQLVESGGGLVQPGGSLRLSCTASGFSLSSHGISWVRQAPGKGLEYIGTIGTGVITYFASWAKGRFTGSKTSSTAYMELSSLRSEDTAVYFCARGSAWNDPFDPWGQGTLVTVSS VL: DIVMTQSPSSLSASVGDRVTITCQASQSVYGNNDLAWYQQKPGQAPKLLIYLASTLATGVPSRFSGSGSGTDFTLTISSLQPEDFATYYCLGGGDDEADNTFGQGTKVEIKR
Result: 0.13
